Values were extracted from PubChem BioAssay (NCI).

This listing pairs compounds with measured TGI.
# System: UACC-62 melanoma
# Measurement Notes: NCI tumour cell line growth inhibition, 48 h

Compound	Assay Readout	Result
O=C1c2c(c(-c3ccccc3)c(-c3ccccc3)c(-c3ccccc3)c2-c2ccccc2)C(=O)N1c1cccc(Br)c1	TGI	> 100 µM
C#CCCCCC#Cc1ccccc1C(=O)C=[N+]=[N-]	TGI	> 100 µM
OCCCCOC(c1ccccc1)(c1ccccc1)c1ccccc1	TGI	> 100 µM
Cn1cc/c(=N\N=c2/ccn(C)c3ccccc23)c2ccccc21	TGI	29.8 µM
COc1ccc(NC(=O)NS(=O)(=O)c2ccc(C)cc2)nn1	TGI	> 100 µM
CN(C)CCCNC(=O)c1cccc2ccccc12	TGI	> 100 µM

We now examine a further compound.
## Task Can you look up TGI on UACC-62 melanoma for CCOC(=O)C(C)c1nc2cc(N3CCOCC3)c(F)cc2[nH]c1=O (stereo unspecified) ?
## Result > 100 µM

====

# Tested on: A498 renal
# Measurement Notes: NCI tumour cell line growth inhibition, 48 h; in the data active means GI50 below about 0.43 µM; inactive means the rest
Just give me one of these, please: active, inactive

Molecule	Label Value
CC(C)(C)C(=O)OCCNc1nc(-c2ccccc2)nc2ccccc12	inactive
N#Cc1cnc(=O)n(C2CC(O)C(CO)O2)c1 (stereo unspecified)	inactive
COc1ccc(C2=C(c3cn(C)c4ccccc34)C(=O)OC2)cc1OC	active
O=C1CCC/C=C\C[C@H]2C=CC(=O)/C2=C/C[C@H](CCc2cccc(C(F)(F)F)c2)O1	inactive
O=C(Nc1ccc(F)cc1F)c1cc(F)ccc1O	inactive

# next molecule below
## Task # fetch the recorded call for N#C/C(=C1C=C/C(=N/O)C(Cl)=C/1)c1ccc(Cl)cc1 here
## Result inactive

====

This listing pairs compounds with measured TGI.
# System: HOP-18 NSCLC
# Measurement Notes: NCI tumour cell line growth inhibition, 48 h

Compound	Result
CC1(C)O[C@@H](CC/C=C/CO)[C@H](CC/C=C/CO)O1	> 100 µM
CC(=O)Nc1ccccc1S(=O)(=O)c1ccccc1	> 100 µM
O=C(O)C1CCC(=O)N1C(=O)C(Cl)c1ccccc1 (stereo not given)	> 100 µM
O=C1c2c(c(-c3ccccc3)c(-c3ccccc3)c(-c3ccccc3)c2-c2ccccc2)C(=O)N1c1cccc(Br)c1	> 100 µM
COc1nc2c(nc(N)n2C2OC(CO)C(O)C(O)C2O)c(=O)[nH]1 (stereo not given)	> 100 µM

## Task For the compound shown here, O=C(OCCO)C1CC2CC1C1(C2)OCCO1 (stereo not given) , give the reported TGI.
## Result > 100 µM

## Task Follow-up item: COc1ccc2c(c1)c1c(C)c3cnccc3c(C)c1n2CCCN
## Result 1.55 µM

## Task Follow-up item: CCCCCC(/C=C/[C@@H]1[C@H]2CC(=O)O[C@H]2C[C@H]1N1CCOCC1)OC1CCCO1 (stereo not given in full)
## Result > 100 µM

## Task Follow-up item: O=C(O)/C=C\C(=O)c1ccc(Cl)cc1
## Result > 100 µM

## Task Follow-up item: COc1ccc(NC(=O)NS(=O)(=O)c2ccc(C)cc2)nn1
## Result > 100 µM

====

This listing pairs molecules with measured TGI.
# Tested on: ACHN renal
# Measurement Notes: NCI tumour cell line growth inhibition, 48 h

Molecule	System Under Test	TGI
O=C(Nc1c(O)[nH]c(=S)[nH]c1=O)c1ccco1	ACHN renal	> 100 µM
N#CC1=C(N)OC2=C(CCCc3ccccc32)C1c1ccc([N+](=O)[O-])cc1 (stereo not given)	ACHN renal	39.1 µM
N#CCCC1(CCC#N)CCCCCCC(CCC#N)(CCC#N)C(=O)C1=O	ACHN renal	> 100 µM
O=[N+]([O-])c1ccc2sc(C=Nc3ccc(O)cc3)cc2c1	ACHN renal	> 100 µM

We now examine a further molecule.
## Task Can you look up TGI on ACHN renal for Cc1ccc(S(=O)(=O)N(/N=C/C=C/c2ccccc2)c2nnc(-c3ccccc3)c(-c3ccccc3)n2)cc1 ?
## Result > 100 µM
